Tested on: SK-MEL-2 melanoma
Assay text: NCI tumour cell line growth inhibition, 48 h
Where a SMILES comes first, the peptide text is derived from it. Bridges are numbered along the chain shown (N, C = ends). Roman numbers before positions name the chains, in order. [ ]: non-standard residue; d: D form. The star is where a group is joined. Quinoxaline2carbonyl = O=C(c1cnc2ccccc2n1)*; NMeV = CN[CH](C(=O)O)C(C)C; NMeC = CN[CH](CS)C(=O)O
Quantity measured: TGI

Solved entries (count: 2):
Compound	Target or system	TGI
CC1NC(=O)C(NC(=O)c2cnc3ccccc3n2)COC(=O)C(C(C)C)N(C)C(=O)C2CSSCC(C(=O)N(C)C(C(C)C)C(=O)OCC(NC(=O)c3cnc4ccccc4n3)C(=O)NC(C)C(=O)N2C)N(C)C1=O (stereo not given) (I: Quinoxaline2carbonyl-SA[NMeC][NMeV] / II: Quinoxaline2carbonyl-SA[NMeC][NMeV]; ester I:1-II:C, I:C-II:1; disulfide I:3-II:3; configuration not given here)	SK-MEL-2 melanoma	< 0.01 µM
CCOc1ccc(-n2nnc3c(N)nc(N)nc32)cc1	SK-MEL-2 melanoma	> 100 µM

# batch size: 4; output TGI per entry
1. CN(CCCNC(=O)c1nn(-c2ccc(Cl)cc2Cl)c2c1Cc1ccccc1-2)CCCNC(=O)c1nn(-c2ccc(Cl)cc2Cl)c2c1Cc1ccccc1-2
2. COc1ccc(/C=N/NC(=O)Cn2c(-c3ccc(S(C)(=O)=O)cc3)nc3cc(Cl)ccc32)cc1
3. Brc1c(C#CCC2CCCCC2)ccc(C#CCC2CCCCC2)c1Br
4. COc1ccc2c(c1OC)C(=O)OC2C1c2c(c([N+](=O)[O-])c3c(c2OC)OCO3)CCN1C (stereo not given)

Response line:
["3.2 µM", "> 50 µM", "> 100 µM", "> 100 µM"]

# batch size: 4; output TGI per entry
1. CC(=O)Oc1ccccc1C(=O)/C=C/c1cccc([N+](=O)[O-])c1
2. O=c1onc2c3ccccc3ncn12
3. N#C/C(=C\c1c[nH]c2ccccc12)C(=O)c1ccc(O)c(O)c1
4. CSCCC(NC(=O)Cc1ccc(C(=O)c2ccccc2)cc1)C(=O)O (stereo not given)

Response line:
1. 29.4 µM
2. > 100 µM
3. > 80.3 µM
4. > 100 µM

# batch size: 5; output TGI per entry
1. C[C@@H]1O[C@@H](OC[C@H]2O[C@@H](OCCc3ccc(O)c(O)c3)[C@H](O)[C@@H](O)[C@@H]2OC(=O)/C=C/c2ccc(O)c(O)c2)[C@H](O)[C@H](O)[C@H]1O
2. CNc1ccc(N)cc1C(=O)N1CCC[C@H]1CO
3. CC1OC(OC2C(OC(=O)[C@@H]3CC(C)(C)C[C@H]4C5=CC[C@@H]6[C@@]7(C)C[C@H](O)[C@H](OC8OC(CO)C(O)C(O)C8O)[C@@](C)(CO)[C@@H]7[C@H](O)C[C@@]6(C)[C@]5(C)CC[C@@]34C)OCC(O)C2O)C(O)C(O)C1O (stereo not given in full)
4. O=C(Nc1cccc(F)c1)c1cc2ccc(O)cc2oc1=Nc1ccccc1F
5. Cc1n[nH]c(=O)n1/N=C/c1ccc([N+](=O)[O-])o1

Response line:
1. > 100 µM
2. > 100 µM
3. > 7.5 µM
4. 18.7 µM
5. > 53.8 µM
